Please respond with reported % inhibition at 1 × 10^-8 M for every item in the list.
- Target: Rat brain protein farnesyltransferase (Rattus norvegicus, UniProt Q02293+Q04631)
- Construct: Rat brain protein farnesyltransferase activity is measured; from tissue; host or cells: rat brain
- Sequence (Q02293 whole entry, one chain of several): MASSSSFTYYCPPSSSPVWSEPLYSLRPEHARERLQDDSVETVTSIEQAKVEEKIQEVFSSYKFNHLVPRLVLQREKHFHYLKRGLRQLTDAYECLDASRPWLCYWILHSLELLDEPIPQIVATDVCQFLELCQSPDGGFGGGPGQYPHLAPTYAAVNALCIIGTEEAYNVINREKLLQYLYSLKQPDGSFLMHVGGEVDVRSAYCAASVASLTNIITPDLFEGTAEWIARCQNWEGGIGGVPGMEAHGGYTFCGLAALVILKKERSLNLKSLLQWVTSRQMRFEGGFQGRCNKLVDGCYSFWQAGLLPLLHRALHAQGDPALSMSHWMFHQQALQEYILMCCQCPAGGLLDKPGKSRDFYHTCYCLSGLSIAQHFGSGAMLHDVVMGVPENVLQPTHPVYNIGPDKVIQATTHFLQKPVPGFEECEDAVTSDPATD
- Measurement Notes: % inhibition of farnesylation, scintillation proximity assay with biotin-K Ras B fragment
- Type: biochemical
- Experimental Setup: Table 4; 1 × 10^-8 M
Your answer should be a plain number; it is taken to be in %.

Enter measured % inhibition at 1 × 10^-8 M, system Rat brain protein farnesyltransferase (Rattus norvegicus, UniProt Q02293+Q04631), for the compound shown: CSCC[C@H](NC(=O)c1ccc(CN(CCC2CCCCC2)S(=O)(=O)c2ccccc2)cc1-c1ccccc1C)C(=O)O [Example 612]
96

Enter measured % inhibition at 1 × 10^-8 M, system Rat brain protein farnesyltransferase (Rattus norvegicus, UniProt Q02293+Q04631), for the compound shown: C=C[C@H](CC1CCCCC1)NCc1ccc(C(=O)N[C@@H](CCSC)C(=O)O)c(-c2ccccc2C)c1 [Example 619]
95

Enter measured % inhibition at 1 × 10^-8 M, system Rat brain protein farnesyltransferase (Rattus norvegicus, UniProt Q02293+Q04631), for the compound shown: CSCC[C@H](NC(=O)c1ccc(/C=C/c2ccc(Oc3cccc(Cl)c3)cc2)cc1-c1ccccc1C)C(=O)O [Example 858]
60

Enter measured % inhibition at 1 × 10^-8 M, system Rat brain protein farnesyltransferase (Rattus norvegicus, UniProt Q02293+Q04631), for the compound shown: CCCCS(=O)(=O)N(Cc1ccc(C(=O)N[C@@H](CCSC)C(=O)O)c(-c2ccccc2C)c1)CC1CCCCC1 [Example 996]
80

----------
- Target: Rat brain protein farnesyltransferase (Rattus norvegicus, UniProt Q02293+Q04631)
- Construct: Rat brain protein farnesyltransferase activity is measured; from tissue; host or cells: rat brain
- Measurement Notes: % inhibition of farnesylation, scintillation proximity assay with biotin-K Ras B fragment
- Format: biochemical
- Experimental Setup: Table 2; 1 × 10^-6 M
Recorded Metric: % inhibition at 1 × 10^-6 M (%)
Your answer should be a plain number; it is taken to be in %.

Using the record for "COc1ccc(CNCc2ccc(C(=O)N[C@@H](CCSC)C(=O)O)c(-c3ccccc3)c2)c(OC)c1" , state its measured % inhibition at 1 × 10^-6 M.
35

Using the record for "CSCC[C@H](NC(=O)c1ccc(CCc2cccc3ccccc23)cc1-c1ccccc1C)C(=O)[O-].[Li+]" , state its measured % inhibition at 1 × 10^-6 M.
97

Using the record for "Cc1ccccc1-c1cc(CN(C)C(C)(C)Cc2ccccc2)ccc1C(=O)N[C@@H](CCS(C)(=O)=O)C(=O)O" , state its measured % inhibition at 1 × 10^-6 M.
94

Using the record for "COc1cccc(CNCc2ccc(C(=O)N[C@@H](CCSC)C(=O)O)c(-c3ccccc3)c2)c1" , state its measured % inhibition at 1 × 10^-6 M.
41

Using the record for "CSCC[C@H](NC(=O)c1ccc(/C=C/c2cccc3ccccc23)cc1-c1ccccc1C)C(=O)O" , state its measured % inhibition at 1 × 10^-6 M.
93

Using the record for "COC(=O)c1cscc1NCc1ccc(C(=O)N[C@@H](CCSC)C(=O)O)c(-c2ccccc2C)c1" , state its measured % inhibition at 1 × 10^-6 M.
87

Using the record for "CSCC[C@H](NC(=O)c1ccc(S(=O)(=O)NCCCn2ccnc2)cc1-c1ccccc1C)C(=O)O" , state its measured % inhibition at 1 × 10^-6 M.
83

Using the record for "CSCC[C@H](NC(=O)c1ccc(S(=O)(=O)NCCN2CCCCC2)cc1-c1ccccc1C)C(=O)O" , state its measured % inhibition at 1 × 10^-6 M.
48

Using the record for "CSCC[C@H](NC(=O)c1ccc(N2CC(=O)NNC2=O)cc1-c1ccccc1)C(=O)O" , state its measured % inhibition at 1 × 10^-6 M.
41

Using the record for "CSCC[C@H](NC(=O)c1ccc(CNc2cccc(I)c2)cc1-c1ccccc1)C(=O)O" , state its measured % inhibition at 1 × 10^-6 M.
37

Using the record for "CSCC[C@H](NC(=O)c1ccc(CNc2ccc(N3CCCCC3)cc2)cc1-c1ccccc1)C(=O)O" , state its measured % inhibition at 1 × 10^-6 M.
39

Using the record for "CSCC[C@H](NC(=O)c1ccc(CN(Cc2ccc(C(F)(F)F)cc2)c2ccccc2)cc1-c1ccccc1C)C(=O)O" , state its measured % inhibition at 1 × 10^-6 M.
96

Using the record for CSCC[C@H](NC(=O)c1ccc(CNCC(O)CO)cc1-c1ccccc1)C(=O)O (stereo partly drawn) , state its measured % inhibition at 1 × 10^-6 M.
43

Using the record for CSCC[C@H](NC(=O)c1ccc(NCC(CO)CC2CCCCC2)cc1-c1ccccc1C)C(=O)O (stereo partly drawn) , state its measured % inhibition at 1 × 10^-6 M.
95

Using the record for "CSCC[C@H](NC(=O)c1ccc(CN(Cc2cncs2)S(C)(=O)=O)cc1-c1ccccc1C)C(=O)O" , state its measured % inhibition at 1 × 10^-6 M.
95

Using the record for "CSCC[C@H](NC(=O)c1ccc(CN(Cc2ccccc2)c2ccccc2SC)cc1-c1ccccc1C)C(=O)[O-].[Li+]" , state its measured % inhibition at 1 × 10^-6 M.
90

Using the record for "CSCC[C@H](NC(=O)c1ccc(NCC(CO)(Cc2ccccc2)Cc2ccccc2)cc1-c1ccccc1C)C(=O)O" , state its measured % inhibition at 1 × 10^-6 M.
21

Using the record for "COC(=O)[C@H](CCSC)NC(=O)c1ccc(NC(=O)[C@@H]2CSCN2)cc1-c1ccccc1.Cl" , state its measured % inhibition at 1 × 10^-6 M.
92

Using the record for "CSCC[C@H](NC(=O)c1ccc(CN(CCc2ccccc2)c2ccccc2)cc1-c1ccccc1C)C(=O)O" , state its measured % inhibition at 1 × 10^-6 M.
96

Using the record for "CSCC[C@H](NC(=O)c1ccc(CNCCSC(C)(C)C)cc1-c1ccccc1)C(=O)O" , state its measured % inhibition at 1 × 10^-6 M.
85

Using the record for "CCSC[C@H](CC1CCCCC1)NCc1ccc(C(=O)N(C)[C@@H](CCSC)C(=O)O)c(-c2ccccc2C)c1" , state its measured % inhibition at 1 × 10^-6 M.
76

Using the record for "CSCC[C@H](NC(=O)c1ccc(CNCCC2CCCCC2)cc1-c1ccccc1C)C(=O)O.O=C(O)C(F)(F)F" , state its measured % inhibition at 1 × 10^-6 M.
96

Using the record for CSCC[C@H](NC(=O)c1ccc(CN(C)CC(O)CO)cc1-c1ccccc1C)C(=O)O (stereo partly drawn) , state its measured % inhibition at 1 × 10^-6 M.
90

Using the record for CSCC[C@H](NC(=O)c1ccc(CNC(CC2CCCCC2)C(O)C(O)CC(C)C)cc1-c1ccccc1C)C(=O)O (stereo partly drawn) , state its measured % inhibition at 1 × 10^-6 M.
99

Using the record for CSCC[C@H](NC(=O)c1ccc(CN(C)C(CC2CCCCC2)C(=O)N2CCCCC2)cc1-c1ccccc1C)C(=O)O (stereo partly drawn) , state its measured % inhibition at 1 × 10^-6 M.
98

Using the record for "CSCC[C@H](NC(=O)c1ccc(/C=C/c2cncnc2)cc1-c1ccccc1C)C(=O)O" , state its measured % inhibition at 1 × 10^-6 M.
96

Using the record for CSCC[C@H](NC(=O)c1ccc(CN2CCC(OCc3ccccc3)C2)cc1-c1ccccc1C)C(=O)O (stereo partly drawn) , state its measured % inhibition at 1 × 10^-6 M.
92

Using the record for "Cc1ccccc1-c1cc(CN(C2CC2)C(C)(C)CC2CCCCC2)ccc1C(=O)N[C@@H](CCS(C)(=O)=O)C(=O)O" , state its measured % inhibition at 1 × 10^-6 M.
93

Using the record for CSCC[C@H](NC(=O)c1ccc(NCC2CNCCN2)cc1-c1ccccc1)C(=O)O (stereo partly drawn) , state its measured % inhibition at 1 × 10^-6 M.
84

Using the record for "CSCC[C@H](NC(=O)c1ccc(/C=C/c2ccccc2)cc1-c1ccccc1C)C(=O)O" , state its measured % inhibition at 1 × 10^-6 M.
53

----------
- Target: Rat brain protein farnesyltransferase (Rattus norvegicus, UniProt Q02293+Q04631)
- Construct: Rat brain protein farnesyltransferase activity is measured; from tissue; host or cells: rat brain
- Measurement Notes: % inhibition of farnesylation, scintillation proximity assay with biotin-K Ras B fragment
- Assay type: biochemical
- Experimental Setup: read-out: % inhibition at 1 × 10^-6 M; Table 2; 1 × 10^-6 M
Where a name gives a salt, the structure may show the parent alone.
Please respond with reported inhibition at 1 µM for every item in the list.
Your answer should be a plain number; it is taken to be in %.

Using the record for CSCC[C@H](NC(=O)c1ccc(COCCCC2CCCCC2)cc1-c1ccccc1C)C(=O)O [Example 405, lithium salt] , state its measured inhibition at 1 µM.
98

Using the record for CSCC[C@H](NC(=O)c1ccc(CS(=O)(=O)Cc2ccccc2)cc1-c1ccccc1C)C(=O)O [Example 555] , state its measured inhibition at 1 µM.
85

Using the record for CSCC[C@H](NC(=O)c1ccc(OC/C=C(\C)CCC=C(C)C)cc1-c1ccccc1C)C(=O)O [Example 546, lithium salt] , state its measured inhibition at 1 µM.
97

Using the record for CSCC[C@H](NC(=O)c1ccc(COCC2CCCO2)cc1-c1ccccc1)C(=O)O (some centres unmarked) [Example 288] , state its measured inhibition at 1 µM.
22

Using the record for CSCC[C@H](NC(=O)c1ccc(OCCOc2ccccc2)cc1-c1ccccc1C)C(=O)O [Example 561] , state its measured inhibition at 1 µM.
91

Using the record for CSCC[C@H](NC(=O)c1ccc(OC/C=C/c2ccccc2)cc1-c1ccccc1C)C(=O)O [Example 560] , state its measured inhibition at 1 µM.
91

Using the record for CSCC[C@H](NC(=O)c1cc(Cc2ccccc2)c(COCc2ccccc2)cc1-c1ccccc1C)C(=O)O [Example 923] , state its measured inhibition at 1 µM.
78

Using the record for CSCC[C@H](NC(=O)c1cc(Cc2ccccc2)c(COCCCc2ccccc2)cc1-c1ccccc1C)C(=O)O [Example 925] , state its measured inhibition at 1 µM.
87

Using the record for CSCC[C@H](NC(=O)c1ccc(OC/C=C(\C)CC/C=C(\C)CCC=C(C)C)cc1-c1ccccc1C)C(=O)O [Example 547, lithium salt] , state its measured inhibition at 1 µM.
91

Using the record for CSCC[C@H](NC(=O)c1cc(Cc2ccccc2)c(COCc2ccco2)cc1-c1ccccc1C)C(=O)O [Example 924] , state its measured inhibition at 1 µM.
77

Using the record for CSCC[C@H](NC(=O)c1ccc(COCc2ccccc2)cc1-c1ccccc1)C(=O)O [Example 575] , state its measured inhibition at 1 µM.
70

Using the record for CSCC[C@H](NC(=O)c1ccc(CSc2nc(O)cc(Cc3ccccc3)n2)cc1-c1ccccc1C)C(=O)O [Example 744] , state its measured inhibition at 1 µM.
84

Using the record for COc1ccc(CCOCc2ccc(C(=O)N[C@@H](CCSC)C(=O)O)c(-c3ccccc3C)c2)cc1 [Example 937, lithium salt] , state its measured inhibition at 1 µM.
95

Using the record for CSCC[C@H](NC(=O)c1ccc(OCCCC2CCCCC2)cc1-c1ccccc1C)C(=O)O [Example 564, lithium salt] , state its measured inhibition at 1 µM.
98

Using the record for CSCC[C@H](NC(=O)c1ccc(COCCC23CC4CC(CC(C4)C2)C3)cc1-c1ccccc1C)C(=O)O [Example 404, lithium salt] , state its measured inhibition at 1 µM.
98

Using the record for CSCC[C@H](NC(=O)c1ccc(COCc2ccoc2)cc1-c1ccccc1C)C(=O)O [Example 530] , state its measured inhibition at 1 µM.
94

Using the record for CSCC[C@H](NC(=O)c1ccc(COCc2ccc(CN(C)C)o2)cc1-c1ccccc1C)C(=O)O [Example 435] , state its measured inhibition at 1 µM.
96

Using the record for CSCC[C@H](NC(=O)c1ccc(CSc2nc3ccccc3s2)cc1-c1ccccc1C)C(=O)O [Example 323] , state its measured inhibition at 1 µM.
98

Using the record for CSCC[C@H](NC(=O)c1ccc(CSc2nc3ccccc3o2)cc1-c1ccccc1C)C(=O)O [Example 322] , state its measured inhibition at 1 µM.
98

Using the record for CSCC[C@H](NC(=O)c1ccc(OCCCCOc2ccccc2)cc1-c1ccccc1C)C(=O)O [Example 568, lithium salt] , state its measured inhibition at 1 µM.
93
